Tested on: SK-MEL-28 melanoma
Assay: NCI-60 one-dose screen, 48 h
Settings: 10 µM unless noted
This is part of a sample that, as a whole, favours compounds with a hit. Of some 83,000 tested, about 20% had one in any assay. The source made the active and inactive calls. How the source made its calls: active means growth percent below 10; inactive means the rest.
The categories you may choose from are Y for active, N for inactive

C=C1C(=O)O[C@H]2[C@H]1CC/C(COC(=O)/C=C\C(=O)NCc1ccc(Cn3c(=O)sn(-c4ccc(C#N)cc4)c3=O)cc1)=C\CC[C@@]1(C)O[C@@H]21 :: Y
Cc1nc(Nc2ccc(S(=O)(=O)Nc3cc(C)on3)cc2)c2ccccc2n1 :: N
Clc1ccc2c(NCCCN3CCN(c4nc(-n5ccnc5)nc5ccccc45)CC3)ccnc2c1 :: Y
Nc1nc(Nc2ccc(Cl)cc2)nn1S(=O)(=O)c1ccc(-c2ccc(F)cc2)cc1 :: N

Next up:
Recorded test outcome, item COc1ccc(-c2nnc(SCC(=O)NC3=NN=C(c4ccccc4)CS3)o2)cc1
N
